Test system: H. pylori
EXPERIMENT_SUMMARY: NCCLS agar dilution MIC, 21 H. pylori strains
Type: cell-based, Helicobacter pylori
ASSAY_CONDITIONS: 21 isolates of H. pylori, read at 72 hours
VALUE_TYPE: MIC Range

COc1c(N2CCNC(C)C2)c(F)cc2c(=O)c(C(=O)O)cn(C3CC3)c12 (stereo not shown) yielded MIC Range of 0.03 to 0.5 µg/mL

COc1c(N2C[C@@H]3CCCN[C@@H]3C2)c(F)cc2c(=O)c(C(=O)O)cn(C3CC3)c12 yielded MIC Range of 0.13 to 2.0 µg/mL

CO/N=C1\CN(c2nc3c(cc2F)c(=O)c(C(=O)O)cn3C2CC2)CC1CN (racemic) yielded MIC Range of 0.03 to 1.0 µg/mL

C[C@H]1COc2c(N3CCN(C)CC3)c(F)cc3c(=O)c(C(=O)O)cn1c23 yielded MIC Range of 0.13 to 2.0 µg/mL

###

For each of the compounds below, state its MIC50.
Tested on: H. pylori
EXPERIMENT_SUMMARY: NCCLS agar dilution MIC, 21 H. pylori strains
Type: cell-based, Helicobacter pylori
ASSAY_CONDITIONS: Helicobacter pylori, 21 isolates of H. pylori, read at 72 hours
Respond numerically; units are µg/mL and should not be typed.

For COc1c(N2CCNC(C)C2)c(F)cc2c(=O)c(C(=O)O)cn(C3CC3)c12 (stereo not shown) on H. pylori, measured MIC50 was 0.13

For COc1c(N2C[C@@H]3CCCN[C@@H]3C2)c(F)cc2c(=O)c(C(=O)O)cn(C3CC3)c12 on H. pylori, measured MIC50 was 0.25

For CO/N=C1\CN(c2nc3c(cc2F)c(=O)c(C(=O)O)cn3C2CC2)CC1CN (racemic) on H. pylori, measured MIC50 was 0.06

For C[C@H]1COc2c(N3CCN(C)CC3)c(F)cc3c(=O)c(C(=O)O)cn1c23 on H. pylori, measured MIC50 was 0.25

Cited source: patent US20040023983A1
